Tested on: MCF7
Hit rate of the full screen: of about 44,000 sequences, about 5,100 (12%) were called active. What follows is part of a selection rich in actives, with near analogues and random picks from the rest. Potency and affinity values are given separately.
The following substances are listed with their measured GI50 values.

substance	GI50
[Bis(aminomethyl)tetramethylenesilane]tetrachloropaltinum(IV), CHEMBL2146189	1640 nM
[Bis(aminomethyl)pentamethylenesilane]tetrachloropaltinum(IV), CHEMBL2146204	290 nM
CISPLATIN, CHEMBL11359	3010 nM

Attention now turns to another entry.
What measured GI50 is associated with [Bis(aminomethyl)pentamethylenesilane]dichloropaltinum(II), CHEMBL2146202 on MCF7?
249 nM
